Target: human cloned 5-HT2C receptor, expressed in CHO cells (Homo sapiens)
Construct: expressed in transfected cells; host or cells: CHO cells
Sequence (P28335 33-458): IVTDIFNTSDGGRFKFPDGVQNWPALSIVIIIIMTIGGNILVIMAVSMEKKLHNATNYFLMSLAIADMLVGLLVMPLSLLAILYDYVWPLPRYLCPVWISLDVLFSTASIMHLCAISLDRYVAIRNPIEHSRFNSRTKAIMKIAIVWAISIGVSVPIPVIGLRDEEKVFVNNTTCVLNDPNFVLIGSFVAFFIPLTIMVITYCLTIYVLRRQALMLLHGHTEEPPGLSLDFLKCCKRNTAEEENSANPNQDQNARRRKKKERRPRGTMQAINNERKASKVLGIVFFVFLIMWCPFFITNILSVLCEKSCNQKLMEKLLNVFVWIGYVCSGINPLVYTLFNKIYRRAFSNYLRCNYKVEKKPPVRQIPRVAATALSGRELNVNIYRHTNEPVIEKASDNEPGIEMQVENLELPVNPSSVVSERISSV
Test: In vitro binding affinity for 5-HT2C receptor ([3H]mesulergine radioligand binding)
Conditions: human cloned 5-HT2C receptor, read-out: 5-HT2C pIC50 (converted)
observable: IC50 (nM)
Use nM as the unit, but write only the number.

Example entries and their recorded answers appear below.
OCCC1CCN(C[C@H]2C[C@@H]3c4ccccc4Cc4ccc(F)cc4[C@@H]3O2)CC1 | 1.62
CCCNC(=O)NC1CCN(C[C@H]2C[C@@H]3c4ccccc4Cc4ccc(F)cc4[C@@H]3O2)CC1 | 4.27
CC(C)(C)OC(=O)N1CCN(C(=O)C2CCN(CC3CC4c5ccccc5Cc5ccc(F)cc5C4O3)CC2)CC1 (stereo not shown) | 9.33

Would you mind telling me what IC50 value was observed for O=C(NC1CCN(C[C@H]2C[C@@H]3c4ccccc4Cc4ccc(F)cc4[C@@H]3O2)CC1)OCc1ccccc1Cl ?
5.75

Fill in the blank: the reported IC50 of OCC1CN(CC2CC3c4ccccc4Cc4ccc(F)cc4C3O2)CCO1 (mixture of isomers) is ____.
11.7

For O=C(Cc1cccs1)NC1CCN(CC2CC3c4ccccc4Cc4ccc(F)cc4C3O2)CC1 (stereo not shown) , what is its reported IC50?
5.75

Please look up its IC50: Fc1ccc2c(c1)C1OC(CN3CCN(Cc4cccc(Oc5ccccc5)c4)CC3)CC1c1ccccc1C2 (stereo not shown)
102

###

Molecular target: human cloned 5-HT2C receptor, expressed in CHO cells (Homo sapiens, UniProt P28335)
Construct: expressed in transfected cells; host or cells: CHO cells
Sequence (P28335 33-458): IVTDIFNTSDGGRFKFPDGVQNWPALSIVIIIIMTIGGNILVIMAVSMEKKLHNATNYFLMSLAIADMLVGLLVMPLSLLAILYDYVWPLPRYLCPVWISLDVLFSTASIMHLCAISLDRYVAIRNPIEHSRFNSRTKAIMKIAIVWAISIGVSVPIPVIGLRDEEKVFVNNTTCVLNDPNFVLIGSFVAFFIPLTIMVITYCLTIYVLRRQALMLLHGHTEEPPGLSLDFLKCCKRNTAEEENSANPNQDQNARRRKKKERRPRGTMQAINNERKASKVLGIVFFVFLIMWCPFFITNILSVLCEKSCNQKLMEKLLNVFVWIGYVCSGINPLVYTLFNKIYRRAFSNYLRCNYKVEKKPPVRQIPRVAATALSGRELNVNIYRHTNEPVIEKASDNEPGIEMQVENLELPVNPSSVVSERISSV
Test: In vitro binding affinity for 5-HT2C receptor ([3H]mesulergine radioligand binding)
Conditions: 5-HT2C pIC50, human cloned 5-HT2C receptor
observable: pIC50
The read-out pIC50 is expressed as -log10 of concentration in moles per litre.

Recall the recorded pIC50 for COc1ccc(OC(=O)NC2CCN(CC3CC4c5ccccc5Cc5ccc(F)cc5C4O3)CC2)cc1 (stereo not shown) [Compound 219] with human cloned 5-HT2C receptor, expressed in CHO cells (Homo sapiens, UniProt P28335) and state it.
8.40
